- System: E. coli (MC 1061)
- procedure_summary: microbe, parasite or virus in culture
- Format: cell-based
- experimental_setup: Escherichia coli, read-out: IRM IC50

{"entry_smiles": "CCC(=O)[C@@H](C)C[C@@H](C)C[C@@H](C)CC[C@H](O)C[C@H](O)[C@H](CC(C)C)[C@H](O)c1cc(O)cc(O)c1", "target_desc": "E. coli (MC 1061)", "IC50 / µM": 150}

###

- Tested on: S. aureus (Newman)
- procedure_summary: microbe, parasite or virus in culture
- Format: cell-based
- experimental_setup: Staphylococcus aureus, NEWMAN, 8 h, read-out: IRM IC50

{"compound": "CCC(=O)[C@@H](C)C[C@@H](C)C[C@@H](C)CC[C@H](O)C[C@H](O)[C@H](CC(C)C)[C@H](O)c1cc(O)cc(O)c1 [BmcA, Baulamycin A]", "target_desc": "S. aureus (Newman)", "readout_units": "µM", "IC50": 86}

###

So I've got IC50 readings for AsbA (Bacillus anthracis), take a look.
measured_endpoint: IC50 (µM)

{"entry_smiles": "CC(=O)[C@@H](C)C[C@@H](C)C[C@@H](C)CC[C@H](O)C[C@H](O)[C@H](CC(C)C)[C@H](O)c1cc(O)cc(O)c1", "readout_units": "µM", "measured_result": 200}
{"entry_smiles": "CCC(=O)[C@@H](C)C[C@@H](C)C[C@@H](C)CC[C@H](O)C[C@H](O)[C@H](CC(C)C)[C@H](O)c1cc(O)cc(O)c1", "readout_units": "µM", "measured_result": 180}
